- targetOfAssay: SULT1A1 (human phenol sulfotransferase, human sulfotransferase 1A1) (Homo sapiens)
- Sequence (P50225 whole entry): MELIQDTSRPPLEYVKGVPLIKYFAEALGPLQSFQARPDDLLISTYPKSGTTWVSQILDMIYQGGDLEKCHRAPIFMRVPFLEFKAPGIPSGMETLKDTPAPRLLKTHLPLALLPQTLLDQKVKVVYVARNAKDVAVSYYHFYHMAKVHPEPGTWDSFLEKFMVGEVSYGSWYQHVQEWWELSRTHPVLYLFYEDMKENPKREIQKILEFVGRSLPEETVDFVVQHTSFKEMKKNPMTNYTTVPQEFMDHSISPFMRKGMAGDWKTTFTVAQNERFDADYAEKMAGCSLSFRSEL
assayEndpoint: Ki (nM)
Note: unit nM is implicit; provide only the numeric part.

Form field Ki for item Oc1ccc2ccccc2c1 on SULT1A1 (human phenol sulfotransferase, human sulfotransferase 1A1) (Homo sapiens): 2600
